# MEASUREMENT_NOTES: Stability of canagliflozin in rat plasma samples (QC samples)
# Format: in vitro ADME
# APPLIED_CONDITIONS: rat plasma; −80 °C for 30 days; nominal concentration 25; n = 5
PROPERTY_MEASURED: Concentration found after storage (Mean ± SD) (ng/mL)
Form entry: value (ng/mL) — number only.

Query: Note Concentration found after storage (Mean ± SD) for the compound shown: Cc1ccc([C@@H]2O[C@H](CO)[C@@H](O)[C@H](O)[C@H]2O)cc1Cc1ccc(-c2ccc(F)cc2)s1 [Canagliflozin]
Reply: 26.9

---

# MEASUREMENT_NOTES: Stability of canagliflozin in rat plasma samples (QC samples)
# Type: in vitro ADME
# APPLIED_CONDITIONS: rat plasma; autosampler (4 °C) for 24 h; nominal concentration 25; n = 5
PROPERTY_MEASURED: Concentration found after storage (Mean ± SD) (ng/mL)
Give just the number in ng/mL; leave the unit off.

Query: Please supply the value of reported Concentration found after storage (Mean ± SD) for the item Cc1ccc([C@@H]2O[C@H](CO)[C@@H](O)[C@H](O)[C@H]2O)cc1Cc1ccc(-c2ccc(F)cc2)s1
Reply: 25.7
